Molecular target: Cynomolgus monkey C5 (cynomolgus monkey, UniProt A0A2K5U1T1 19-1676)
Experiment: cell-based or functional assay
Measured Cyno AP % Max Inhibition, hemolysis assay, 5% serum of individual entries
State the result as a value with its unit after it.

Below: 2 binders and their reported Cyno AP % Max Inhibition, hemolysis assay, 5% serum.
H4H12159P (antibody, human IgG4, V domains shown, H4H: human IgG4 Fc with S108P hinge mutation) VH: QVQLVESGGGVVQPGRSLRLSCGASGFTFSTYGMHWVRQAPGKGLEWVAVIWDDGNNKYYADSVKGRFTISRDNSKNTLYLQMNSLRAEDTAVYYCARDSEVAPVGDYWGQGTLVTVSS VL: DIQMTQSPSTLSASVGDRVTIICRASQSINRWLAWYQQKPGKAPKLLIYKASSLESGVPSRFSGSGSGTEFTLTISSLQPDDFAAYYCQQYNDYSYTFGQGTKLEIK = 99.6%
H4H12167P (antibody, human IgG4, V domains shown, H4H: human IgG4 Fc with S108P hinge mutation) VH: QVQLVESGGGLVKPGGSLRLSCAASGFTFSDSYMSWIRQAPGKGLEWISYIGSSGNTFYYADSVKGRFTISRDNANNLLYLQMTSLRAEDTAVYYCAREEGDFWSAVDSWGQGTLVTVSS VL: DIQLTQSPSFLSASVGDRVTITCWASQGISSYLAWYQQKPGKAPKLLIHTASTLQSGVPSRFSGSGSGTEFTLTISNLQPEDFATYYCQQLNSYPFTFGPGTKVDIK = 98.3%

The binder H4H12168P (antibody, human IgG4, V domains shown, H4H: human IgG4 Fc with S108P hinge mutation) VH: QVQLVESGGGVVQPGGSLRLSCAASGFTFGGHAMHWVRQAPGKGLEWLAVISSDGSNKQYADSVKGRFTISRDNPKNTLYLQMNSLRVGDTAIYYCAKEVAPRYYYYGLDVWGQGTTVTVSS VL: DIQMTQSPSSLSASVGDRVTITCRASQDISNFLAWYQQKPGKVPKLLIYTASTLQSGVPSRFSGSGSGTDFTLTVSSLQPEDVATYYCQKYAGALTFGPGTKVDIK showed Cyno AP % Max Inhibition, hemolysis assay, 5% serum equal to 99.7%
